- Tested on: noradrenaline (NA) reuptake in synaptosomes
- assay_comment: Inhibition of NA reuptake in synaptosomes
- Format: biochemical
- protocol_conditions: 3H-NA, read-out: NA-uptake IC50
quantity_name: pIC50
Bear in mind: pIC50 is minus log10 of a mol/L concentration; give just that figure.

Input line: pIC50 lookup needed for C=C(C)n1c(=O)n(CCN2CCN(c3ccc(Cl)c(Cl)c3)CC2)c2ccccc21 , thanks.
Output line: 5.97
